- assayedSystem: Eukaryotic translation initiation factor 4E (Homo sapiens)
- Sequence (P06730 whole entry): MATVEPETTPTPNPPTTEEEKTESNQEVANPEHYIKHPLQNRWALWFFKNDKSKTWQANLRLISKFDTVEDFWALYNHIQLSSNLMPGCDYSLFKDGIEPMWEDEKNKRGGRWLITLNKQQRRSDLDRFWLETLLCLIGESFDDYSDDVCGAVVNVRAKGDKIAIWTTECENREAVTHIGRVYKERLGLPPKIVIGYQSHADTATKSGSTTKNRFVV
For each of the molecules below, state its IC50.

The examples below pair each entry with its known result.
molecule	assayedSystem	observed
CCN(c1ncc2nc(C)n(CC#Cc3ccc(Cl)cc3-c3ccnc4c(C(=O)NS(=O)(=O)C5COC5)csc34)c(=O)c2c1C#N)C1CCN(CC(F)(F)C(F)F)CC1 [US11286268, Compound 1608]	Eukaryotic translation initiation factor 4E (Homo sapiens)	6.59 nM
Cc1nc2cnc(NC3CC[N+](C)(CC(F)F)CC3)c(C#N)c2c(=O)n1CC#Cc1ccc(Cl)cc1-c1ccnc2c(C(=O)O)csc12 (stereo not given) [US11286268, Compound 1663]	Eukaryotic translation initiation factor 4E (Homo sapiens)	14.1 nM
Cc1nc2cnc(N(C)C3CCN(CC(F)F)CC3)c(C#N)c2c(=O)n1CCOc1ccc(Cl)cc1-c1ccnc2c(C(=O)O)csc12 [US11286268, Compound 1318]	Eukaryotic translation initiation factor 4E (Homo sapiens)	34.4 nM
CCN(c1ncc2nc(C)n(CC#Cc3ccc(Cl)cc3-c3ccnc4c(C(=O)NS(=O)(=O)c5ccccn5)csc34)c(=O)c2c1C#N)C1CCN(CC(F)(F)C(F)F)CC1 [US11286268, Compound 1609]	Eukaryotic translation initiation factor 4E (Homo sapiens)	4.88 nM

Qu. # IC50 lookup, item Cc1nc2cnc(C(=O)C3CCN(CC(F)F)CC3)c(C#N)c2c(=O)n1CCOc1ccc(Cl)cc1-c1ccnc2c(C(=O)O)csc12 [US11286268, Compound 1440]
Ans. 69 nM
